Values compiled from patent US20250312469A1.

- assay.text: in vitro
- experimental.conditions: both, human, s9, Half-life (min), calculated (in parentheses), human liver S9 fraction; calculated half-life longer than the experiment
endpoint.label: half-life at 0.5 μM
The number alone won't do; follow it with the unit.

The reported value for CCC1(O)C(=O)OCc2c1cc1n(c2=O)Cc2cc3cc4c(cc3nc2-1)OCO4 (stereo not shown) [FL118] in terms of half-life at 0.5 μM is 1.05 h

====

- assay.text: in vitro
- experimental.conditions: both, human, s9
endpoint.label: microsomal CLint

Query C[C@]12CC[C@H]3[C@@H](CCC4=CC(=O)CC[C@@]43C)[C@@H]1CC[C@@H]2O [testosterone, reference compound] yields microsomal CLint of 20.7 µL/min/mg

// sample O=c1ccc2ccc(O)cc2o1 [7-hydroxycoumarin, reference compound] , its microsomal CLint was 57.3 µL/min/mg

====

- assay.text: Hepatocyte stability
- experimental.conditions: both, human, hepatocytes, pH 7.4, Clint (intrinsic clearance), cryopreserved human hepatocytes; bound
endpoint.label: hepatocyte CLint at 0.5 μM

The recorded hepatocyte CLint at 0.5 μM for entry CCC1(O)C(=O)OCc2c1cc1n(c2=O)Cc2cc3cc4c(cc3nc2-1)OCO4 (stereo not shown) equals < 3.85 µL/min/1e6 cells

====

- assay.text: Plasma protein binding (RED)
- experimental.conditions: both, human, % Bound of Plasma, Test Article (FL118), 37° C.
endpoint.label: fraction unbound at 4 h, 1 μM

fraction unbound at 4 h, 1 μM recorded for this molecule, CCC1(O)C(=O)OCc2c1cc1n(c2=O)Cc2cc3cc4c(cc3nc2-1)OCO4 (stereo not shown) [FL118] , is < 0.01

====

- assay.text: in vitro
- experimental.conditions: both, human, s9, Half-life (min), human liver S9 fraction; expressed as > the longest incubation time
endpoint.label: half-life at 0.5 μM

The measured half-life at 0.5 μM associated with CCC1(O)C(=O)OCc2c1cc1n(c2=O)Cc2cc3cc4c(cc3nc2-1)OCO4 (stereo not shown) [FL118] reads > 1 h

====

endpoint.label: pKd
Quick note: pKd values are minus log10 of concentrations in mol/L.

I looked up CCC1(O)C(=O)OCc2c1cc1n(c2=O)Cc2cc3cc4c(cc3nc2-1)OCO4 (stereo not shown) and its pKd for UbE2T (Homo sapiens) was 6.80

====

- measured.target: hERG (Homo sapiens)
- Sequence (Q12809 whole entry): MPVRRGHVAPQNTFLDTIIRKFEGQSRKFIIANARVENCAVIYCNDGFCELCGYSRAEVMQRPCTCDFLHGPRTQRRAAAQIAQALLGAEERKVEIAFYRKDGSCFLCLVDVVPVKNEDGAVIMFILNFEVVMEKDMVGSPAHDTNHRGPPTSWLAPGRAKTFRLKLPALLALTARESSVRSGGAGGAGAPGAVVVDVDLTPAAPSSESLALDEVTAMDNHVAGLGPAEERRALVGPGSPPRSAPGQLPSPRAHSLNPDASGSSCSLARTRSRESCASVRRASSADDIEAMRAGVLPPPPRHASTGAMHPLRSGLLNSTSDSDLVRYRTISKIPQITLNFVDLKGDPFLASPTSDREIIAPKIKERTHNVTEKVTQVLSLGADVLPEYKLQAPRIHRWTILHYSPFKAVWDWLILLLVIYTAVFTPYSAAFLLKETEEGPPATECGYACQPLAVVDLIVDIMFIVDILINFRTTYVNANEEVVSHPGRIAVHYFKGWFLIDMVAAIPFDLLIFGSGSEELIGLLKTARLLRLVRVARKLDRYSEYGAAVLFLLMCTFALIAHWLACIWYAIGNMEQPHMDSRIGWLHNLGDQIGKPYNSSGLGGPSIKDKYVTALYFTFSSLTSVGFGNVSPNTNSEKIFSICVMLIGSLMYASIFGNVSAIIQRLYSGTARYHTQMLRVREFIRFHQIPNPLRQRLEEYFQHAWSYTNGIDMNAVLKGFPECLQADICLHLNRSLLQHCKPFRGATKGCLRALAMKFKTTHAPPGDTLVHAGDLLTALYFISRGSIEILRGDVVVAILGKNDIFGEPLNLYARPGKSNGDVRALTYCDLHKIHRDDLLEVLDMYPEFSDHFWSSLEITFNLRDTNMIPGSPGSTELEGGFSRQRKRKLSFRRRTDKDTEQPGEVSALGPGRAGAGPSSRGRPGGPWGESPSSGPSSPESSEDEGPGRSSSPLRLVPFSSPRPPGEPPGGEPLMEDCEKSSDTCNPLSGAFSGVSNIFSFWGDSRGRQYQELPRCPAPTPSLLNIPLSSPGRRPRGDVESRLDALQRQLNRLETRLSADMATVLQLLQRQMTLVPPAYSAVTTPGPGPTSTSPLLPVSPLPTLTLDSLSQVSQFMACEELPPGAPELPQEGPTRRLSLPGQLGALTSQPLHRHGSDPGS
- assay.text: in vitro
- experimental.conditions: human, pH 7.2
endpoint.label: inhibition at 300 s, 1 µM (%)
Form entry: value (%) — number only.

Kindly note the recorded inhibition at 300 s, 1 µM for CCC1(O)C(=O)OCc2c1cc1n(c2=O)Cc2cc3cc4c(cc3nc2-1)OCO4 (stereo not shown) , which is 19.9

====

- assay.text: in vivo
- experimental.conditions: SCID, mouse, po
endpoint.label: MTD at 4 weekly doses

// MTD at 4 weekly doses value for CCC1(O)C(=O)OCc2c1cc1n(c2=O)Cc2cc3cc4c(cc3nc2-1)OCO4 (stereo not shown) : ~10 mg/kg

====

- Tested on: P-gp
- assay.text: in vitro
- experimental.conditions: human, Caco-2, pH 7.4, Papp AVG, Caco-2; B-to-A; without valspodar
endpoint.label: Papp B→A at 120 min, 1 μM

The recorded Papp B→A at 120 min, 1 μM for entry CCC1(O)C(=O)OCc2c1cc1n(c2=O)Cc2cc3cc4c(cc3nc2-1)OCO4 (stereo not shown) [FL118] equals 8.1 ×10⁻⁶ cm/s
